# assay: Effect to the thymus index and spleen index of murine by gavaging a triacontanol oil agent
# Format: in vivo
# experimental setup: 0.001 mg/kg, tumor-bearing mice
measurement type: Spleen index (mg/10 g body weight)
Use mg/10 g body weight as the unit, but write only the number.

Determine its reported Spleen index (mg/10 g body weight): N.N.[Cl][Pt][Cl]
46

----------
# assay: Effect to the thymus index and spleen index of murine by gavaging a triacontanol oil agent
# Assay type: in vivo
# experimental setup: 50 mg/kg (low dosage), gavage, tumor-bearing mice
measurement type: Spleen index (mg/10 g body weight)
Lab book: enter the figure in mg/10 g body weight, no units written.

Give the value of Spleen index (mg/10 g body weight) reported for the following: CCCCCCCCCCCCCCCCCCCCCCCCCCCCCCO [352B, triacontanol]
67.1

----------
# assay: Effect to the thymus index and spleen index of murine by gavaging a triacontanol oil agent
# Format: in vivo
# experimental setup: 50 mg/kg (low dosage), gavage, tumor-bearing mice
measurement type: Thymus index (mg/10 g body weight)
I'd appreciate it if you wrote the number followed by its unit.

Note Thymus index (mg/10 g body weight) for the compound shown: CCCCCCCCCCCCCCCCCCCCCCCCCCCCCCO [352B, triacontanol]
45 mg/10 g body weight

----------
# assay: Effect to the thymus index and spleen index of murine by gavaging a triacontanol oil agent
# Format: in vivo
# experimental setup: 0.001 mg/kg, tumor-bearing mice
measurement type: Thymus index (mg/10 g body weight)
Field: value (include unit after the number)

Give reported Thymus index (mg/10 g body weight) value for N.N.[Cl][Pt][Cl] [DDP]
30.7 mg/10 g body weight
